We begin with a simple list: items and their reported EC50.
# test-target: Heat shock factor protein 1 (Mus musculus)
# Sequence (P38532 whole entry): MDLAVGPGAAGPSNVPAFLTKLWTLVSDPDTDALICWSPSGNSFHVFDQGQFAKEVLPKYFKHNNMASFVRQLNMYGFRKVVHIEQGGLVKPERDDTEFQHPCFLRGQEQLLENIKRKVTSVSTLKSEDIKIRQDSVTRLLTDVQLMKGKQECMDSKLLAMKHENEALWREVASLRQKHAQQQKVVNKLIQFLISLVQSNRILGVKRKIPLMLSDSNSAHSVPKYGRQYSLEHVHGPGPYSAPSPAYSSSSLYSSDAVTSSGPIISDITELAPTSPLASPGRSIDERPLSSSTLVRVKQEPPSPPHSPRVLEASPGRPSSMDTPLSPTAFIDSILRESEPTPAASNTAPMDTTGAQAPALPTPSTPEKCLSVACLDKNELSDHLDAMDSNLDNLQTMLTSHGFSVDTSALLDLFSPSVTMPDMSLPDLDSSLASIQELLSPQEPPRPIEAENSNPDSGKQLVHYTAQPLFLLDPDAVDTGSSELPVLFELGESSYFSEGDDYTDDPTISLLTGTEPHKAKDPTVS
# experiment: decrease of HSF1-responsive luciferase luminescence – cell-based, NIH3T3, dose retest, confirmation (AID 2382);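 also: NIH3T3 fibroblasts with HSF1-driven luciferase reporter stressed by proteasome inhibitor MG132; luminescence from HSF1-driven luciferase expression after 8 hours of MG132 stress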
# Type: functional
Activity calls are given as the source filed them.

- molecule: "N#CC1=C(N)C(C#N)(C#N)C(c2cccnc2)C2CC(c3ccccc3)CC=C12 (stereo not given)"
  test-target: "Heat shock factor protein 1 (Mus musculus)"
  measurement-label: "EC50"
  data-value: "> 195 µM (not active)"

Ask: Supply EC50 value. Item: O=C(CSc1nnc(COc2ccc3c(c2)CCCC3)o1)Nc1ccc(F)cc1
Reply: > 195 µM (not active)

Ask: Supply EC50 value. Item: CC1=NN(c2ccccc2)C(=O)C1N=Nc1ccc(S(N)(=O)=O)cc1 (stereo not given)
Reply: > 195 µM (not active)

Ask: Supply EC50 value. Item: COc1ccc(Cl)cc1NC(=O)CSc1nc2ccsc2c(=O)n1CC1CCC(C(=O)O)CC1 (stereo not given)
Reply: > 195 µM (not active)

Ask: Supply EC50 value. Item: CC1=NNC(=O)/C1=C\c1cn(-c2ccccc2)nc1-c1ccc(Cl)cc1
Reply: 6.61 µM (active)

---

# test-target: FAD-linked sulfhydryl oxidase ALR (Homo sapiens)
# Sequence (P55789 whole entry): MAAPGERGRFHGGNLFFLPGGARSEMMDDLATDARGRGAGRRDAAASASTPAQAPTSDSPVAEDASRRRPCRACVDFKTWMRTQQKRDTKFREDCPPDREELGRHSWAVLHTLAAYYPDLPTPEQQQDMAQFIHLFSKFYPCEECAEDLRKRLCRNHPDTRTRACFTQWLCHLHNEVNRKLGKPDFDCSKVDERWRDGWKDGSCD
# experiment: ALR-catalysed DTT oxidation blockers – biochemical, H2O2 detection, luminescence, cherry-pick, dose response (AID 493248)
Activity calls are given as the source filed them.
measurement-label: AC50

Example compounds with recorded AC50:
- compound: "Oc1ccc(/C(Cc2ccccn2)=N\\Nc2ccccc2)c(O)c1"
  data-value: "0.332 µM (active)"
- compound: "COc1ccc(-c2csc(Nc3ccc(S(=O)(=O)Nc4cc(C)on4)cc3)n2)cc1"
  data-value: "12.9 µM (active)"
- compound: "CCN(CCNC(=O)C1CCN(S(=O)(=O)CC)CC1)c1ccccc1"
  data-value: "0.013 µM (active)"
- compound: "O=C(Cn1cccn1)N1CCCC(Nc2ccc(F)c(F)c2)C1 (stereo not given)"
  data-value: "1.92 µM (active)"
- compound: "Cc1cc(O)c(Sc2nc[nH]n2)cc1NS(=O)(=O)c1ccc(Cl)cc1"
  data-value: "1.52 µM (active)"

Ask: Print FAD-linked sulfhydryl oxidase ALR (Homo sapiens) AC50 for O=S(=O)(Nc1ccc(N2CCCCC2)cc1)c1ccc(F)c(F)c1 .
Reply: 4.17 µM (active)

Ask: Print FAD-linked sulfhydryl oxidase ALR (Homo sapiens) AC50 for COC(=O)c1cc(-c2c(C)nn(-c3ccccc3)c2C)[nH]n1 .
Reply: 1.2 µM (active)

Ask: Print FAD-linked sulfhydryl oxidase ALR (Homo sapiens) AC50 for O=C(NNc1cccc(Cl)c1)c1cccnc1Cl .
Reply: 4.14 µM (active)

Ask: Print FAD-linked sulfhydryl oxidase ALR (Homo sapiens) AC50 for O=C(CN1C(=O)C2CC=CCC2C1=O)Nc1nc2ccc(F)cc2s1 (stereo not given) .
Reply: 0.494 µM (active)

Ask: Print FAD-linked sulfhydryl oxidase ALR (Homo sapiens) AC50 for Cc1nc(SCc2cccc(F)c2)nc(O)c1C#N .
Reply: 9.69 µM (active)

Ask: Print FAD-linked sulfhydryl oxidase ALR (Homo sapiens) AC50 for COc1cc(/C=N/NC(=O)CN(Cc2ccco2)S(=O)(=O)c2ccccc2)ccc1O .
Reply: 1.13 µM (active)

Ask: Print FAD-linked sulfhydryl oxidase ALR (Homo sapiens) AC50 for COC(=O)C(CC(=O)Nc1cc(C)ccc1C)Nc1ccccc1OC (stereo not given) .
Reply: 13.1 µM (active)

Ask: Print FAD-linked sulfhydryl oxidase ALR (Homo sapiens) AC50 for CC(=O)N1CCN(c2ccc(NCc3ccc(F)cc3)cc2)CC1 .
Reply: 0.198 µM (active)

Ask: Print FAD-linked sulfhydryl oxidase ALR (Homo sapiens) AC50 for CCCc1cn(S(=O)(=O)c2ccc(OC)cc2OC)nc1N .
Reply: 9.53 µM (active)

Ask: Print FAD-linked sulfhydryl oxidase ALR (Homo sapiens) AC50 for Cc1ccn(Cc2nnc(S)n2Cc2ccccc2)n1 .
Reply: 8.59 µM (active)

Sourced from ChEMBL document CHEMBL1201862
